pIC50: −log10 of the molar value.
The following compounds each carry a recorded pIC50 for UniProt:P23743.
Sequence (P23743 whole entry): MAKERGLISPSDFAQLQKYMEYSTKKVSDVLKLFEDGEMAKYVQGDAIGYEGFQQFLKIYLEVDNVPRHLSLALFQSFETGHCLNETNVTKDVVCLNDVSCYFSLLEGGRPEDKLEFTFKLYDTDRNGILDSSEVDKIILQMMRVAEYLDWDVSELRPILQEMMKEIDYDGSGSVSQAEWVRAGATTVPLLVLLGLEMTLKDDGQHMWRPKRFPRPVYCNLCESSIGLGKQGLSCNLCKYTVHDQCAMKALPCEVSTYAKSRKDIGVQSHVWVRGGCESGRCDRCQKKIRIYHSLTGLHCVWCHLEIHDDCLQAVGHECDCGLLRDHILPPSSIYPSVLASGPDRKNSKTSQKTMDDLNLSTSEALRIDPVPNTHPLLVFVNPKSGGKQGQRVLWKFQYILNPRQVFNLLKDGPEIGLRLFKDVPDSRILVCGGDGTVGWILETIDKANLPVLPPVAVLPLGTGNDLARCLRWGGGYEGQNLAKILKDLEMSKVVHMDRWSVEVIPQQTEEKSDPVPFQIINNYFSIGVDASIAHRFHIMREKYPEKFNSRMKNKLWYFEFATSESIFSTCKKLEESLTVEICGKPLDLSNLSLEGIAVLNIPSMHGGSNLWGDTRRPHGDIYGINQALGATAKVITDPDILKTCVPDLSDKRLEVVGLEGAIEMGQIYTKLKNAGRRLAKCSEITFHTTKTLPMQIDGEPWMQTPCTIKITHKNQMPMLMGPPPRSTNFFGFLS

compound	pIC50
CC[C@H]1CN(C(C)c2nc(Cl)cn2CC)[C@H](CC)CN1c1cc(=O)n(C)c2cn(CC#N)nc12 (single isomer, unassigned) [Compound A191a]	< 5.00
CC[C@@H]1CN(c2cc(=O)n(C)c3cn(CC#N)nc23)[C@@H](C)CN1C(C)c1ccc(F)cc1C(F)(F)F (single isomer, unassigned) [Compound A218a]	< 3.82
CC[C@H]1CN(C(C)c2ncccc2OC)[C@H](CC)CN1c1cc(=O)n(C)c2cn(CC#N)nc12 (single isomer, unassigned) [Compound A92a]	< 5.00
CC#CCn1cc2c(n1)c(N1C[C@@H](CC)N(C(C)c3ccc(F)cc3C(F)(F)F)C[C@@H]1CC)cc(=O)n2C (single isomer, unassigned) [Compound A238a]	< 5.00

# input # value lookup — system UniProt:P23743, readout pIC50, item Cc1c2c(nn1CC#N)c(N1C[C@@H](C)N(C(C)c3ccc(F)cc3C(F)(F)F)C[C@@H]1C)nc(=O)n2C (single isomer, unassigned) [Compound A267b]
# output < 3.82
